B1: STK38L (parent)
chain: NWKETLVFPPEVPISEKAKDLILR

Variants of: B1
test-protocol: protein stability index of a GFP-peptide fusion (GPS, HEK-293T) (PSI 1-6); higher = more stable;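 note: lentivirally expressed fusions sorted by FACS into six bins by GFP to DsRed ratio, PSI derived from sequencing read proportions per bin multiplied by bin number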
test-parameters: c terminus: a fixed tail appended
Property: protein stability index; scope: individual variants
Please reply with the number alone, leaving off any unit.

Observe how each entry below is paired with its result.
[
  {
    "sequence-content": "NWKETLVFPPEVPISEKAKDLIGR [L23G]",
    "protein stability index": 4.47
  },
  {
    "sequence-content": "NWSETLVFPPEVPISEKAKDLILR [K3S]",
    "protein stability index": 3.17
  },
  {
    "sequence-content": "NWKETLVFPPEVPISEKAKTLILR [D20T]",
    "protein stability index": 2.92
  }
]

**Q:** Return value of protein stability index for input NQKETLVFPPEVPISEKAKDLILR [W2Q] , no commentary.
**A:** 4.21

**Q:** Please report the measured protein stability index for NWKENLVFPPEVPISEKAKDLILR [T5N]
**A:** 3.36

**Q:** Identify measured protein stability index associated with NWKETLVFPPEVPISEKAKDLIFR [L23F]
**A:** 2.9

**Q:** Specify protein stability index for NWKETLVFPPEVPISEKLKDLILR [A18L] and stop.
**A:** 1.8

**Q:** Determine its reported protein stability index: NIKETLVFPPEVPISEKAKDLILR [W2I]
**A:** 3.32

**Q:** Quote protein stability index reported for NWKETLVCPPEVPISEKAKDLILR [F8C] please.
**A:** 4.02

**Q:** # return recorded protein stability index for entry NWKETLVFPPECPISEKAKDLILR [V12C]
**A:** 2.73

The measurements presented in this section are drawn from the supplement of paper PMC10567573.
